target-system: T1, TIGIT-mFc (extracellular region of human TIGIT with mIgG1-Fc tag) (human)
T1 construct: A bought TIGIT-mFc (Acro Biosystems TIT-H5253) is used for immunization; also called recombinant humanized TIGIT-mFc
T1 chain: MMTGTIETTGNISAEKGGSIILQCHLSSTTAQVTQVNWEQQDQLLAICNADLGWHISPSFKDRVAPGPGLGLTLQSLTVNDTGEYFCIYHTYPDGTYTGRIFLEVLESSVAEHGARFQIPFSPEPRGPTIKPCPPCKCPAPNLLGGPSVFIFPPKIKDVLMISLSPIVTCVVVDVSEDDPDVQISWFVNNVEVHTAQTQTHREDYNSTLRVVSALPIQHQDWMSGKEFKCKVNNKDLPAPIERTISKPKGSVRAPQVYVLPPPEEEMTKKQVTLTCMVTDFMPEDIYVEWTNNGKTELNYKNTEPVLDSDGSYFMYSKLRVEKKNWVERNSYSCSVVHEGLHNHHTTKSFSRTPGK
experiment: ELISA, blocking of TIGIT-mFc binding to coated CD155-hFc (competitor CD155-hFc)
For each entry below, report its IC50 value.
Give bare numbers, in nM.

Please review the following examples before continuing.
{"binder": "SHS006-T-Hu23-53 (antibody, IgG4, V domains shown, Humanized; also called SHS006-HuT23-53; HuT23-53) VH: EVQLVESGGGLVQPGGSLRLSCAASGFTFSDHWMSWVRQAPGKTMEWIGNIQYDGSYTNYAPSLKNRFTISRDNAKNSLYLQMNSLRAEDTATYYCTRGHFRITMASMGASASVYWGQGTMVTVSS VL: DIQMTQSPSSLSASVGDRVTITCRTSQDIGNSLRWFQQKPGKAPKLLIHGATNLANGVPSRFSGSGSGTDFTLTISSLQPEDFATYYCLQHNEYPLTFGQGTKLEIK", "reported-property": "IC50", "reported": 1.01}
{"binder": "SHS006-23CHI (antibody, V domains shown, Chimeric antibody with human heavy and light chain constant regions) VH: EVQLVESEGGLVQPGASVKLSCVGSGFSFSDHWMSWVRQTPGKTMEWIGNIQYDGSYTNYAPSLKNRFTISRDNAKNTLYLQMTNLRSEDTATYYCTRGHFRITMASMGASASVYWGQGVMVTVSS VL: DIQMTQSPSSLPTSLGDRVTITCRTSQDIGNSLRWFQQKPGKSPRLMIHGATNLANGVPSRFSGSRAGSDYSLTINSLESEDMAMYYCLQHNEYPLTFGSGTKLEIK", "reported-property": "IC50", "reported": 1.04}

Switching to the query record.
Q: I would be grateful if you could share the reported IC50 for humanized antibody 22G2 (antibody, IgG4, V domains shown, Expressed from pHR-22G2-hG4 (IgG4 heavy chain) and pHR-22G2-hk (light chain); from US 2016/0176963A1; also called positive control antibody) VH: QVQLQESGPGLVKPSETLSLTCTVSGGSVSSGIYYWSWIRQPPGKGLEWIGYIYYSGSTNYNPSLKSRVTISVDTSKNQFSLKLSSVTAADTAVYYCARDYYVSGNYYNVDYYFFGVDVWGQGTTVTVSS VL: EIVLTQSPATLSLSPGERATLSCRASQSVSSYLAWYQQKPGQAPRLLIYDASNRATGIPARFSGSGSGTDFTLTISSLEPEDFAVYYCQQRSNWPPLFTFGPGTKVDIK .
Result: 1.34
